Data credit: patent US9242966B2

targetSystem: human KV 1.5 (Homo sapiens, UniProt P22460)
Construct: expressed in transfected cells; host or cells: mammalian L-929 cells (mouse fibroblast line)
Sequence (P22460 whole entry): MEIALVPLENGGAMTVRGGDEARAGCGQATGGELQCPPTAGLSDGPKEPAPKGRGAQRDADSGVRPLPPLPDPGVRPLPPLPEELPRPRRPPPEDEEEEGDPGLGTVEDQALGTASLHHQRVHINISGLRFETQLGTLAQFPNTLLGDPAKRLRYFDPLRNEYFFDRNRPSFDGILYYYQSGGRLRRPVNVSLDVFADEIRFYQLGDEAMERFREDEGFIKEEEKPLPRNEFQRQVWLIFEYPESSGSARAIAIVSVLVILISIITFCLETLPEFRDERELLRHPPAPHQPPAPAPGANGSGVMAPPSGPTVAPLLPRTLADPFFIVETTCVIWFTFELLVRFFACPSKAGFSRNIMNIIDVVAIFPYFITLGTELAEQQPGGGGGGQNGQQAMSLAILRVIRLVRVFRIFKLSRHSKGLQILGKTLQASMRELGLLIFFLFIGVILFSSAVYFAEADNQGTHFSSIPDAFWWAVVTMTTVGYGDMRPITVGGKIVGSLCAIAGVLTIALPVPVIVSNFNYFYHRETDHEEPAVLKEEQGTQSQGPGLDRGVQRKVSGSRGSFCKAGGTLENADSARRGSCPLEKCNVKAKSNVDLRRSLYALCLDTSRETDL
assayExplanation: Block of IKur current in patch clamped L-929 cells expressing human Kv1.5
Format: cell-based
assayConditions: L929, 0.3 μM; patch clamped mammalian L-929 cells stably expressing human Kv1.5 (IKur); read-out: KV1_5% Inh L929 @0.3 μM
In this section, each of the compounds is paired with its reported inhibition at 0.3 µM.
Note: unit % is implicit; provide only the numeric part.

Fill in the blank: the reported inhibition at 0.3 µM of O=C(NCCc1ccccc1F)c1cncc(-c2nnc(NCc3ccccn3)c3c(-c4ccccc4)cccc23)c1 is ____.
98.6

====

targetSystem: human KV 1.5 (Homo sapiens, UniProt P22460)
Construct: expressed in transfected cells; host or cells: mammalian L-929 cells (mouse fibroblast line)
assayExplanation: Block of IKur current in patch clamped L-929 cells expressing human Kv1.5
Format: cell-based
assayConditions: L929, 0.3 μM; patch clamped mammalian L-929 cells stably expressing human Kv1.5 (IKur); read-out: KV1_5% Inh L929 @0.3 μM
readoutLabel: inhibition at 0.3 µM (%)
Note: unit % is implicit; provide only the numeric part.

Fill in the blank: the reported inhibition at 0.3 µM of NS(=O)(=O)c1cncc(-c2nnc(NCc3cccc(C(F)(F)F)c3)c3c(-c4ccccc4)cccc23)c1 [Example 38] is ____.
94.9

Fill in the blank: the reported inhibition at 0.3 µM of Cc1cnc(CNC(=O)c2cncc(-c3nnc(NCc4ccccn4)c4c(-c5ccccc5)cccc34)c2)cn1 [Example 45] is ____.
75.6

Fill in the blank: the reported inhibition at 0.3 µM of C[C@@H](Nc1nnc(-c2cncc(S(N)(=O)=O)c2)c2cccc(-c3ccccc3)c12)c1ccccc1 [Example 42] is ____.
91.2

Fill in the blank: the reported inhibition at 0.3 µM of NS(=O)(=O)c1cncc(-c2nnc(NCc3ncccn3)c3c(-c4ccccc4)cccc23)c1 [Example 29] is ____.
68.1

Fill in the blank: the reported inhibition at 0.3 µM of CC(C)OC(=O)Nc1cncc(-c2nnc(NCc3ccccc3)c3c(-c4ccccc4)cccc23)c1 [Example 4] is ____.
95.4

====

targetSystem: human KV 1.5 (Homo sapiens, UniProt P22460)
Construct: expressed in transfected cells; host or cells: mammalian L-929 cells (mouse fibroblast line)
assayExplanation: Block of IKur current in patch clamped L-929 cells expressing human Kv1.5
Assay type: cell-based
assayConditions: L929, 0.3 μM; patch clamped mammalian L-929 cells stably expressing human Kv1.5 (IKur); read-out: KV1_5% Inh L929 @0.3 μM
readoutLabel: inhibition at 0.3 µM (%)
Note: unit % is implicit; provide only the numeric part.

Examples with answers:
[[record]]
smilesdata = "Oc1cc(-c2nnc(NCc3ccccc3)c3c(-c4ccccc4)cccc23)ccn1"
measurednumber = 80.2

[[record]]
smilesdata = "NS(=O)(=O)c1cncc(-c2nnc(NCc3cc(Cl)cc(Cl)c3)c3c(-c4ccccc4)cccc23)c1"
measurednumber = 78.4

[[record]]
smilesdata = "CC(C)(C)CCNC(=O)c1cncc(-c2nnc(NCc3ccccn3)c3c(-c4ccccc4)cccc23)c1"
measurednumber = 96.4

[[record]]
smilesdata = "CC(=O)Nc1cncc(-c2nnc(NCc3ccccn3)c3c(-c4ccccc4)cccc23)c1"
measurednumber = 78.8

[[record]]
smilesdata = "NS(=O)(=O)c1cncc(-c2nnc(NCc3cccc(OC(F)(F)F)c3)c3c(-c4ccccc4)cccc23)c1"
measurednumber = 90.2

[[record]]
smilesdata = "CC(C)OC(=O)Nc1cncc(-c2nnc(NCc3ccccn3)c3c(-c4ccccc4)cccc23)c1"
measurednumber = 91.6


Fill in the blank: the reported inhibition at 0.3 µM of CC(C)CC(=O)Nc1cncc(-c2nnc(NCc3ccccc3)c3c(-c4ccccc4)cccc23)c1 is ____.
91.5

Fill in the blank: the reported inhibition at 0.3 µM of NS(=O)(=O)c1cncc(-c2nnc(NCc3c(F)cccc3F)c3c(-c4ccccc4)cccc23)c1 is ____.
91.1

Fill in the blank: the reported inhibition at 0.3 µM of NS(=O)(=O)c1cncc(-c2nnc(NCc3cccc(F)c3)c3c(-c4ccccc4)cccc23)c1 is ____.
53.2

Fill in the blank: the reported inhibition at 0.3 µM of CC(C)OCCNC(=O)c1cncc(-c2nnc(NCc3ccccn3)c3c(-c4ccccc4)cccc23)c1 is ____.
71.1
